Assay: qHTS to identify inhibitors of the type 1 interferon - major histocompatibility complex class I in skeletal muscle: Secondary screen by immunofluorescence; note: nearly all actives have a fitted effect of over 70% in size
Conditions: C25cl48 myoblasts, IFN-b induced HLA-ABC immunofluorescence, 24 h; series mostly up to 49.8 µM
Records with an inconclusive call do not appear. Activity calls are given as the source filed them. Calls come from the whole dose curve; as a rule, active = well fitted inhibition curve with a large enough effect; inconclusive = small, poorly fitted or top-dose-only effect; inactive = no such curve, though single readings can be large or run the other way.
Outcomes: yes (1) (active), no (0) (inactive)

CCOC(=O)C1=C(C)NC2=C(C(=O)CC(C)(C)C2)C1c1ccc(-c2ccccc2)cc1 (stereo unspecified) :: no (0)
NC(=O)Nc1sc(-c2ccc(F)cc2)cc1C(N)=O :: yes (1)
CC(C)C[C@H](NC(=O)CNC(=O)c1cc(Cl)ccc1Cl)B1OC(=O)CC(CC(=O)O)(C(=O)O)O1 (stereo partly specified) :: yes (1)
Fc1ccc(CNc2ncnc3ccc(F)cc23)cc1 :: no (0)
CC[C@@]1(O)C(=O)OCc2c1cc1n(c2=O)Cc2cc3cc(O)ccc3nc2-1 :: yes (1)
CCC[C@H](NC(=O)/C(C#N)=C/c1cccc(Br)n1)c1ccccc1 :: yes (1)
CC[C@@]1(O)C(=O)OCc2c1cc1n(c2=O)Cc2c-1nc1ccccc1c2/C=N/OC(C)(C)C :: yes (1)
N#CCNC(=O)c1ccc(-c2ccnc(Nc3ccc(N4CCOCC4)cc3)n2)cc1 :: yes (1)
O=C(NC1CCNCC1)c1[nH]ncc1NC(=O)c1c(Cl)cccc1Cl :: yes (1)
CCCCC(=O)OCC(=O)[C@H]1[C@H](C)C[C@H]2[C@@H]3C[C@H](F)C4=CC(=O)C=C[C@]4(C)[C@@]3(F)[C@@H](O)C[C@@]21C :: no (0)
COc1cc(F)ccc1-c1ncnc(Nc2cccc(CS(C)(=N)=O)c2)n1 (stereo unspecified) :: yes (1)
